Listed next: entries and their corresponding inhibition rate on the root growth of barnyard grass seeds.
# System: barnyard grass seeds
# procedureDetails: Petri dish seed germination method: inhibition of root and stem growth of barnyard grass
# Type: in vivo
# runConditions: 0.625 mmol/L, 96 hours incubation
State just the number; it will be interpreted in %.

Example entries begin here.
- Cc1ccc(CNC(C)(C)[C@H]2CC[C@@](C)(NCc3ccc(C)o3)CC2)o1: 24.7
- CC(C)(N=Cc1ccc(Cl)cc1)[C@H]1CC[C@@](C)(N=Cc2ccc(Cl)cc2)CC1 [reference compound]: 24.3
- CC1(NCc2ccc(F)cc2)CCC(C(C)(C)NCc2ccc(F)cc2)CC1 (stereo not shown): 78.6
- Cc1ccc(CNC(C)(C)[C@H]2CC[C@@](C)(NCc3ccc(C)cc3)CC2)cc1: 89.6
- CN(C)c1ccc(C=NC(C)(C)[C@H]2CC[C@@](C)(N=Cc3ccc(N(C)C)cc3)CC2)cc1 [reference compound]: 45.4

Task item: Record request: inhibition rate on the root growth of barnyard grass seeds value, item CC1(NCc2ccc(Br)o2)CCC(C(C)(C)NCc2ccc(Br)o2)CC1 (stereo not shown)
Reply: 54.8

###

Listed next: entries and their corresponding inhibition rate on the stem growth of barnyard grass seeds.
# Tested on: barnyard grass seeds
# procedureDetails: Petri dish seed germination method: inhibition of root and stem growth of barnyard grass
# Type: in vivo
# runConditions: 0.15625 mmol/L, 96 hours incubation
State just the number; it will be interpreted in %.

Example entries begin here.
* CC1(NCc2ccco2)CCC(C(C)(C)NCc2ccco2)CC1 (stereo not shown) | 0
* CSc1ccc(CNC2(C)CCC(C(C)(C)NCc3ccc(SC)cc3)CC2)cc1 (stereo not shown) | 22.8
* CC(C)(NCc1ccc(Br)cc1)[C@H]1CC[C@@](C)(NCc2ccc(Br)cc2)CC1 | 25.2
* COc1ccc(CNC2(C)CCC(C(C)(C)NCc3ccc(OC)cc3)CC2)cc1 (stereo not shown) | 9.9
* CC1(NCc2cccs2)CCC(C(C)(C)NCc2cccs2)CC1 (stereo not shown) | 13.3
* CC1(NCc2ccc(C(F)(F)F)cc2)CCC(C(C)(C)NCc2ccc(C(F)(F)F)cc2)CC1 (stereo not shown) | 11.6

Proceed to the following item.
Task item: Please tell me: inhibition rate on the stem growth of barnyard grass seeds of `CC(C)(NCc1ccccn1)[C@H]1CC[C@@](C)(NCc2ccccn2)CC1` , system barnyard grass seeds?
Reply: 23.8

###

Listed next: entries and their corresponding inhibition rate on the root growth of barnyard grass seeds.
# Tested on: barnyard grass seeds
# procedureDetails: Petri dish seed germination method: inhibition of root and stem growth of barnyard grass
# Type: in vivo
# runConditions: 1.25 mmol/L, 96 hours incubation
State just the number; it will be interpreted in %.

Example entries begin here.
- CC1(N=Cc2ccc(C(F)(F)F)cc2)CCC(C(C)(C)N=Cc2ccc(C(F)(F)F)cc2)CC1 (stereo not drawn) [reference compound]: 17.5
- CC(C)(NCc1ccccc1C(F)(F)F)[C@H]1CC[C@@](C)(NCc2ccccc2C(F)(F)F)CC1: 93.
- CC(C)(N=Cc1ccc(Br)cc1)[C@H]1CC[C@@](C)(N=Cc2ccc(Br)cc2)CC1 [reference compound]: 46.8
- CC(C)(NCc1ccccn1)[C@H]1CC[C@@](C)(NCc2ccccn2)CC1: 61.0
- CC1(N=Cc2ccc(F)cc2)CCC(C(C)(C)N=Cc2ccc(F)cc2)CC1 (stereo not drawn) [reference compound]: 85.7
- CC1(NCc2ccc(Cl)cc2)CCC(C(C)(C)NCc2ccc(Cl)cc2)CC1 (stereo not drawn): 90.8
- CC(C)(NCc1ccc(Br)cc1)[C@H]1CC[C@@](C)(NCc2ccc(Br)cc2)CC1: 89.6
- Cc1ccc(CNC(C)(C)[C@H]2CC[C@@](C)(NCc3ccc(C)o3)CC2)o1: 50.3

Proceed to the following item.
Task item: Record request: inhibition rate on the root growth of barnyard grass seeds value, item CC1(NCc2ccc[nH]2)CCC(C(C)(C)NCc2ccc[nH]2)CC1 (stereo not drawn)
Reply: 93.1
